- test summary: in vitro
- test context: both, human, microsomes, pH 7.4, t1/2
Where a name gives a salt, the structure may show the parent alone.
measured metric: half-life at 2 µM (h)

CC(C)NCC(O)COc1cccc2ccccc12 (racemic) [Propranolol, (+,-) Propranolol hydrochloride]
1.18
Cc1nc2c([nH]1)-c1ccccc1N(C(=O)c1ccc(NC(=O)c3ccccc3-c3ccccc3)cc1)CC2 [Conivaptan, conivaptan]
0.907

---

- test summary: Metabolic stability in human liver microsomes
- test context: both, liver microsomes (pooled), pH 7.4, t1/2, Table S6, 1st batch
measured metric: half-life at 2 µM (min)

The cases that follow already have their half-life at 2 µM on record.
O=C(NC1CCN(CCCCC2(C(=O)NCC(F)(F)F)c3ccccc3-c3ccccc32)CC1)C1CC2CC1(c1ccc(C(F)(F)F)cc1)C2 (centres unmarked)
9
Cc1nc2c([nH]1)CCN(C(=O)c1ccc(NC(=O)C3CC4CC3(c3ccccc3)C4)cc1)c1ccccc1-2 (centres unmarked)
135
Cn1cc(C(=O)NC2CC3CC2(c2ccc(Cl)c(Cl)c2)C3)c(C(F)F)n1 (centres unmarked)
47.4

(P) O=C(NC1CC2CC1(c1ccc(Cl)cc1)C2)c1cccnc1Cl (centres unmarked)
(Q) Cn1cc(C(=O)NC2CC3CC2(c2cc(F)c(F)c(F)c2)C3)c(C(F)F)n1 (centres unmarked)
Asked: Could you tell me which of these two has the smaller half-life at 2 µM figure? First: P Second: Q Give the chosen item's label as your response.
Given back: Q
(Q: 27.3 min, P: 57.6 min)

---

- test summary: in vitro
- test context: both, human, s9, pH 7.4
measured metric: microsomal CLint at 2 μM (µL/min/mg)
Report as a plain number; the unit µL/min/mg is understood.

Asked: Entry O=C(O)Cc1ccccc1Nc1c(Cl)cccc1Cl [Diclofenac] has what microsomal CLint at 2 μM?
Given back: 178

---

- System: Aspergillus niger (strain VURV-F 822)
- test summary: Antifungal disk diffusion method
- Type: cell-based
- test context: Concentration 0.008 mg/mL, 0 = absence of antifungal activity, read-out: Diameter of inhibition zone
measured metric: zone of inhibition at 8 µg/mL (mm)
Report as a plain number; the unit mm is understood.

The cases that follow already have their zone of inhibition at 8 µg/mL on record.
Cn1cc(C(=O)Nc2ccc(F)cc2-c2ccc(Cl)c(Cl)c2)c(C(F)F)n1
15.8
O=C(NC1CC2CC1(c1ccc(Cl)cc1)C2)c1cccnc1Cl (stereo not drawn)
0
O=C(Nc1ccccc1-c1ccc(Cl)cc1)c1cccnc1Cl
8.5
Cn1cc(C(=O)Nc2ccccc2-c2cc(F)c(F)c(F)c2)c(C(F)F)n1
11.8

Asked: Entry Cn1cc(C(=O)NC2CC3CC2(c2ccc(Cl)c(Cl)c2)C3)c(C(F)F)n1 (stereo not drawn) has what zone of inhibition at 8 µg/mL?
Given back: 0

Asked: Next up: Cn1cc(C(=O)NC2CC3CC2(c2cc(F)c(F)c(F)c2)C3)c(C(F)F)n1 (stereo not drawn)
Given back: 0

---

- test summary: Metabolic stability in human liver microsomes
- test context: both, liver microsomes (pooled), pH 7.4, % Remaining without cofactor, Mean of 2, 40 min, no NADPH cofactor, Table S6, 1st batch
measured metric: remaining at 40 min, 2 µM (%)

Cc1nc2c([nH]1)CCN(C(=O)c1ccc(NC(=O)C3CC4CC3(c3ccccc3)C4)cc1)c1ccccc1-2 (centres unmarked) [Compound 26]
109
O=C(NC1CCN(CCCCC2(C(=O)NCC(F)(F)F)c3ccccc3-c3ccccc32)CC1)C1CC2CC1(c1ccc(C(F)(F)F)cc1)C2 (centres unmarked) [Compound 27]
106
Cn1cc(C(=O)NC2CC3CC2(c2cc(F)c(F)c(F)c2)C3)c(C(F)F)n1 (centres unmarked) [Compound 30]
109
Cn1cc(C(=O)NC2CC3CC2(c2ccc(Cl)c(Cl)c2)C3)c(C(F)F)n1 (centres unmarked) [Compound 29]
106
O=C(NC1CC2CC1(c1ccc(Cl)cc1)C2)c1cccnc1Cl (centres unmarked) [Compound 28]
116

---

- test summary: Metabolic stability in human liver microsomes
- test context: both, human liver microsomes (pooled), pH 7.4, % Remaining without cofactor, Mean of 2, 40 min, no NADPH cofactor, Table S9, 4st batch
measured metric: remaining at 40 min, 2 µM (%)
Report as a plain number; the unit % is understood.

Asked: Entry `Cn1cc(C(=O)Nc2ccc(F)cc2-c2ccc(Cl)c(Cl)c2)c(C(F)F)n1` has what remaining at 40 min, 2 µM?
Given back: 101

---

- test summary: in vitro
- test context: both, human, microsomes, pH 7.4, % Remaining, Mean of 2
Where a name gives a salt, the structure may show the parent alone.
measured metric: remaining at 40 min, 2 µM (%)

CC(C)NCC(O)COc1cccc2ccccc12 (racemic) [Propranolol, (+,-) Propranolol hydrochloride]
68
Cc1nc2c([nH]1)-c1ccccc1N(C(=O)c1ccc(NC(=O)c3ccccc3-c3ccccc3)cc1)CC2
60

---

- test summary: Kinetic solubility in phosphate-buffered saline, pH 7.4
- Type: physicochemical
- test context: 25 °C, aqueous buffer, kinetic from dmso stock; phosphate-buffered saline, pH 7.4; read-out: Sol.: experimental kinetic solubility
- Protocol: Analysis of Aqueous Solubility […] compound (Ondansetron) were assessed for kinetic solubility in phosphate -buffered saline, pH 7.4. Phosphate buffered saline, pH 7.4 (Sigma -Aldrich, USA; Cat #P3813) […] The measurements were performed using SpectraMax Plus reader in UV -Vis mode. […] The measurements were performed using SpectraMax Paradigm reader in UV-Vis mode. […] calibration curves. […] 200 μl of each sample was transferred to 96-well plate and measured in 230-550 nm range with 5 nm step. […]
measured metric: solubility kinetic at 2 h (µM)

The cases that follow already have their solubility kinetic at 2 h on record.
Cn1cc(C(=O)NC2CC3CC2(c2cc(F)c(F)c(F)c2)C3)c(C(F)F)n1 (stereo not shown)
27
Cn1cc(C(=O)Nc2ccc(F)cc2-c2ccc(Cl)c(Cl)c2)c(C(F)F)n1
30

(1) O=C(NC1CC2CC1(c1ccc(Cl)cc1)C2)c1cccnc1Cl (stereo not shown)
(2) Cn1cc(C(=O)NC2CC3CC2(c2ccc(Cl)c(Cl)c2)C3)c(C(F)F)n1 (stereo not shown)
Asked: Could you tell me which of these two has the smaller solubility kinetic at 2 h figure? First: 1 Second: 2 Give the chosen item's label as your response.
Given back: 2
(2: 4 µM, 1: 35 µM)

---

- test summary: Kinetic solubility in phosphate-buffered saline, pH 7.4
- Format: physicochemical
- test context: phosphate-buffered saline, 25 °C, pH 7.4, aqueous buffer, kinetic from dmso stock, Table S4, 4nd batch; read-out: PBS solubility, pH 7.4, Mean
- Method: Analysis of Aqueous Solubility […] compound (Ondansetron) were assessed for kinetic solubility in phosphate -buffered saline, pH 7.4. Phosphate buffered saline, pH 7.4 (Sigma -Aldrich, USA; Cat #P3813) […] The measurements were performed using SpectraMax Plus reader in UV -Vis mode. […] The measurements were performed using SpectraMax Paradigm reader in UV-Vis mode. […] calibration curves. […] 200 μl of each sample was transferred to 96-well plate and measured in 230-550 nm range with 5 nm step. […]
measured metric: solubility at 2 h (µM)
Report as a plain number; the unit µM is understood.

Asked: Entry `Cn1cc(C(=O)Nc2ccc(F)cc2-c2ccc(Cl)c(Cl)c2)c(C(F)F)n1` has what solubility at 2 h?
Given back: 30

---

- test context: Table S5, injection 2, octanol/PBS pH 7.4
measured metric: D

O=C(NC1CCN(CCCCC2(C(=O)NCC(F)(F)F)c3ccccc3-c3ccccc32)CC1)C1CC2CC1(c1ccc(C(F)(F)F)cc1)C2 (stereo not shown)
7.46E+03
Cc1nc2c([nH]1)CCN(C(=O)c1ccc(NC(=O)C3CC4CC3(c3ccccc3)C4)cc1)c1ccccc1-2 (stereo not shown)
1.25E+04
Cc1nc2c([nH]1)-c1ccccc1N(C(=O)c1ccc(NC(=O)c3ccccc3-c3ccccc3)cc1)CC2
2.11E+04
Cn1cc(C(=O)Nc2ccc(F)cc2-c2ccc(Cl)c(Cl)c2)c(C(F)F)n1
1.53E+04
O=C(Nc1ccccc1-c1ccc(Cl)cc1)c1cccnc1Cl
2.86E+03

(P) O=C(NC1CCN(CCCCC2(C(=O)NCC(F)(F)F)c3ccccc3-c3ccccc32)CC1)c1ccccc1-c1ccc(C(F)(F)F)cc1 [Lomitapide, lomitapide]
(Q) Cn1cc(C(=O)NC2CC3CC2(c2cc(F)c(F)c(F)c2)C3)c(C(F)F)n1 (stereo not shown)
Asked: Could you tell me which of these two has the smaller D figure? First: P Second: Q Give the chosen item's label as your response.
Given back: Q
(Q: 4.11E+03, P: 3.42E+05)

---

- test summary: Kinetic solubility in phosphate-buffered saline, pH 7.4
- Assay type: physicochemical
- test context: phosphate-buffered saline, 25 °C, pH 7.4, aqueous buffer, kinetic from dmso stock, Table S2, 2st batch; read-out: PBS solubility, pH 7.4, Incubation 2
measured metric: solubility at 2 h (µM)

O=C(NC1CC2CC1(c1ccc(Cl)cc1)C2)c1cccnc1Cl (stereo not drawn)
34

(I) Cn1cc(C(=O)NC2CC3CC2(c2ccc(Cl)c(Cl)c2)C3)c(C(F)F)n1 (stereo not drawn)
(II) Cn1cc(C(=O)NC2CC3CC2(c2cc(F)c(F)c(F)c2)C3)c(C(F)F)n1 (stereo not drawn)
Asked: Between I and II , whose measured solubility at 2 h reads higher? Give the chosen item's label as your response.
Given back: II
(II: 28 µM, I: 4 µM)
